- RUN_DESCRIPTION: survival rescue of mitochondrial mutant cells in low glucose, primary screen, MELAS cybrids, Rieske KO mouse fibroblasts, CellTiter-Glo (AID 1508586);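 also: z relative to plate mean and SD of compound and empty wells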
- ASSAY_SETUP: MELAS cybrid survival, CellTiter-Glo 48 h, stronger effect = higher value
VALUE_TYPE: z-score
Could you keep your reply to the number by itself?

Some entries whose results are on file:
# MOLECULE, z-score
records = [
    ("c1cnn2ncc(-c3ccnc(Nc4ccc5c(c4)OCCO5)n3)c2c1", 0.529),
    ("CCn1c(-c2nonc2N)nc2cnc(Oc3cccc(NC(=O)c4ccc(N(C)C)cc4)c3)cc21", 0.0951),
    ("CCS(=O)(=O)c1ccc(OC)c(Nc2ncc(-c3cccc(OC)c3)o2)c1", 1.48),
    ("NS(=O)(=O)c1cccc(N=Cc2c(O)[nH]c3ccccc23)c1", 1.07),
    ("CCS(=O)(=O)c1ccc(OC)c(Nc2ncc(-c3cccc(F)c3)o2)c1", 1.69),
    ("CCn1c(-c2nonc2N)nc2c(C#CC(C)(C)O)nc(CN3CCCC3)cc21", -0.869),
    ("Cc1ccc2c(-c3ccnc(Nc4cccc(C(F)(F)F)c4)n3)c(-c3ccccc3)nn2n1", 0.907),
    ("Fc1ccc(Oc2nccc(-c3c(-c4ccc(F)cc4)ncn3C3CCNCC3)n2)cc1", -0.283),
    ("FC(F)(F)c1cccc(-c2nn3ncccc3c2-c2ccnc(Nc3ccc4c(c3)OCCO4)n2)c1", -0.0141),
    ("COc1ccccc1Nc1ncc(-c2ccccc2)o1", 0.853),
]

input: Looking for the measured z-score of CCn1c(-c2nonc2N)nc2ccc(F)cc21 , can you help?
output: -0.0553

input: Try the molecule Fc1ccc(-c2c(-c3ccncc3)nc3n2CCS3)cc1
output: -0.499

input: Try the molecule COc1cc(N2CCN(C(C)C)CC2)ccc1Nc1nc(Nc2ccc(F)cc2C(=O)NC[C@@H](O)CO)c2cc[nH]c2n1
output: -0.811

input: Try the molecule COC(=O)Nc1nc2ccc(Oc3ccc(NC(=O)Nc4cccc(C(=O)O)c4)cc3)cc2[nH]1
output: -0.776

input: Try the molecule CN(C)c1cc2c(Nc3ccc4c(cnn4Cc4ccccc4)c3)ncnc2cn1
output: -0.0495

input: Try the molecule COC(=O)c1ccc2c(c1)/C(=C\c1cc(Br)c(O)c(Br)c1)C(=O)N2
output: -0.186

input: Try the molecule CNC(=O)c1cncc(/C=C/c2c(C)cccc2C)c1
output: 1.23

input: Try the molecule Nc1nccc(-c2c(-c3ccc(F)cc3)ncn2CCCN2CCOCC2)n1
output: -0.929

input: Try the molecule CC(C)NCC(O)c1cc(O)cc(O)c1 (stereo unspecified)
output: 0.509

input: Try the molecule CC(C)c1ccc(-c2cc(C3CNNC3c3ccccn3)ccn2)cc1 (stereo unspecified)
output: 0.0399

input: Try the molecule O=S1CCN(Cc2ccc(-c3ccc4ncnc(Nc5ccc(OCc6ccccc6)c(Cl)c5)c4c3)o2)CC1
output: 1.05

###

- RUN_DESCRIPTION: inhibitors of polyQ protein aggregation (AID 1604)
- ASSAY_SETUP: polyglutamine-induced protein aggregation inhibition assay; stronger effect = higher value; concentration not given here
VALUE_TYPE: inhibition of aggregation (%)
Report the value in % with no unit label.

Some entries whose results are on file:
# COMPOUND, READOUT_NUMBER
data = [
    ("CC(COc1ccccc1)N(CCCl)Cc1ccccc1 (stereo unspecified)", 33.3),
    ("CCCNC(=O)NS(=O)(=O)c1ccc(Cl)cc1", 91),
    ("CCCCNC(=O)NS(=O)(=O)c1ccc(C)cc1", 52.6),
    ("CC(CN1c2ccccc2Sc2ccccc21)N(C)C (stereo unspecified)", 66.7),
    ("COc1ccccc1OCC(O)COC(N)=O (stereo unspecified)", 88.8),
]

Then there is this compound:
input: Looking for the measured inhibition of aggregation of Clc1ccc2c(c1)C(N1CCNCC1)=Nc1ccccc1O2 , can you help?
output: -0.07

###

- RUN_DESCRIPTION: differential killing of epithelial or mesenchymal cells, primary screen, imaging, PC-3E GFP, TEM4-18 mCherry, co-culture (AID 1345086);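 also: cells exposed to compound for 72 h before imaging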
- ASSAY_SETUP: imaging cell counts, measured here: mesenchymal TEM4-18 mCherry cell survival, at 1 µM
Each entry below carries its recorded normalised cell number.
Could you keep your reply to the number by itself?

Some entries whose results are on file:
# MOLECULE, normalised cell number
measured = [
    ("CCCN(CCC)S(=O)(=O)c1ccc(C(=O)O)cc1", 1.12),
    ("COc1cc2nc(N(C)CCCNC(=O)C3CCCO3)nc(N)c2cc1OC (centres undefined)", 1.09),
    ("COC1=CC(=O)C[C@@H](C)[C@]12Oc1c(Cl)c(OC)cc(OC)c1C2=O", 1.07),
    ("CCN(Cc1ccncc1)C(=O)C(CO)c1ccccc1 (centres undefined)", 1.16),
    ("C/C=C/C(=O)N(CC)c1ccccc1C", 0.97),
    ("CC(CN1c2ccccc2Sc2ccccc21)N(C)C (centres undefined)", 1.05),
    ("CCN(CC)C(=S)SSC(=S)N(CC)CC", 0.17),
    ("c1ccc(-c2ccc(C(c3ccccc3)n3ccnc3)cc2)cc1 (centres undefined)", 1.04),
]

input: Looking for the measured normalised cell number of COc1cc2nc(N3CCN(C(=O)c4ccco4)CC3)nc(N)c2cc1OC , can you help?
output: 1.25

input: Try the molecule CCN(CC)CC(=O)Nc1c(C)cccc1C
output: 1.12

input: Try the molecule Nc1nc2ccc(OC(F)(F)F)cc2s1
output: 1.11

###

- RUN_DESCRIPTION: glucagon-like peptide 1 release enhancers, primary assay, NCI-H716 cell line, NPC library (AID 1117341)
- ASSAY_SETUP: NCI-H716 cells, at 10 µM, stronger effect = higher value
Activity calls are given as the source filed them.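 How the source made its calls: active means compound raises GLP1 secretion from the human gut endocrine cells, with no numeric limit stated; inactive means the rest.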 Starred links: 1 amine or outer side, 2 acyl side, 3 side chain; linkers in the order of their positions; H or OH if unused. Positions of bridges follow the written chain, without caps; N, C: chain ends. Non-standard residues stand in square brackets, D forms with d. Residues, ends and D or L forms follow the SMILES beside them. ξ: configuration not given here. *: point of attachment. ΔAla(3-NHCONH2) = NC(=O)NC=C(N)C(=O)O; X1 = NC1=NCCC(C(N[*:1])C(=O)[*:2])N1; ξβ3hOrn = NCCCC(N)CC(=O)*; Dap = NC[CH](N)C(=O)O
VALUE_TYPE: GLP1 secretion stimulation

Some entries whose results are on file:
# MOLECULE, GLP1 secretion stimulation
measured = [
    ("Nc1ccc(C(=O)Nc2ccccc2N)cc1", "1.1% (inactive)"),
    ("Nc1nc(N)c(-c2ccccc2)s1", "2.1% (inactive)"),
    ("NCCCC(N)CC(=O)NCC1NC(=O)C(CO)NC(=O)C(N)CNC(=O)C(C2CCN=C(N)N2)NC(=O)C(=CNC(N)=O)NC1=O (stereo not drawn) (H-[Dap]S[Dap](ξβ3hOrn)[ΔAla(3-NHCONH2)][X1]; lactam 1-C; configuration not given here)", "-1.3% (inactive)"),
]

Then there is this molecule:
input: Looking for the measured GLP1 secretion stimulation of O=C(Nc1ncc([N+](=O)[O-])s1)c1cccs1 , can you help?
output: -0.9% (inactive)

###

- RUN_DESCRIPTION: decreased DLD-1 cellular survival, CellTiter-Glo luminescent readout, NPC compound collection, primary HTS (AID 1117346)
- ASSAY_SETUP: DLD-1 viability, CellTiter-Glo luminescence; at 20 µM (top of the series)
Active and inactive are the calls of the source.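 The calls were made as follows: active = compounds that lower survival of DLD-1 colon cancer cells in the luminescence readout, no cutoff given; inactive = the rest.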
Allowed answers: TRUE (active), FALSE (inactive)

# COMPOUND, LABEL_VALUE
data = [
    ("CC(=O)c1ccc(O)c(C(N)=O)c1", "FALSE"),
    ("NNCCc1ccccc1", "FALSE"),
    ("CN(C)CCOC(c1ccc(Cl)cc1)c1ccccn1 (stereo unspecified)", "FALSE"),
    ("CCCCCCCCOc1ccc(C(=O)c2ccccc2)c(O)c1", "FALSE"),
    ("COC(=O)c1ccccc1C(=O)c1ccc(OCCN2CCCCC2)cc1", "FALSE"),
]

input: Test call, this compound: CCNC(=O)NCc1cccc(Cl)c1
output: FALSE

###

- RUN_DESCRIPTION: ovarian cancer cell viability with rucaparib, profiling panel, oncology-focused library, rucaparib conditional (AID 1508598)
- ASSAY_SETUP: patient-derived ovarian cancer cells, CellTiter-Glo viability, 144 h; at 0.00488 µM; OCI-C5x cells; without rucaparib; stronger effect = lower value
Active and inactive are the calls of the source.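 The calls were made as follows: active = normalized viability below 100% at a tested concentration; inactive = the rest.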
Each entry below carries its recorded viability.

Some entries whose results are on file:
# COMPOUND, viability
records = [
    ("O=c1[nH]cnc2[nH]ncc12", "125% (inactive)"),
    ("Cc1ccc(-c2cc(C(F)(F)F)nn2-c2ccc(S(N)(=O)=O)cc2)cc1", "107% (inactive)"),
    ("O=C1CCC(N2C(=O)c3ccccc3C2=O)C(=O)N1 (centres undefined)", "99.5% (active)"),
    ("CN(CCOc1ccc(CC2SC(=O)NC2=O)cc1)c1ccccn1 (centres undefined)", "129% (inactive)"),
    ("CC(C)C(=O)Nc1ccc([N+](=O)[O-])c(C(F)(F)F)c1", "113% (inactive)"),
    ("NC(=O)c1ccc(-c2nc(-c3ccc4c(c3)OCO4)c(-c3ccccn3)[nH]2)cc1", "135% (inactive)"),
    ("O=c1[nH]cc(F)c(=O)[nH]1", "115% (inactive)"),
    ("S=c1nc[nH]c2nc[nH]c12", "100% (inactive)"),
]

Then there is this compound:
input: Looking for the measured viability of CCN(CC)C(=S)SSC(=S)N(CC)CC , can you help?
output: 130% (inactive)
